- test-protocol: yeast display, Sf9 membrane polyspecificity reagent, FACS + sequencing; frameworks hold sequencing errors
experimental-readout: polyreactivity (PSR sort gate)

Study these solved cases before continuing.
Input: I would be grateful if you could share the reported polyreactivity (PSR sort gate) for "QVQLVESGGGLVQAGGSLRLSCAASGRIFDHYARGWYRQAPGKERELVAAINSGGTTNYADSVKGRFTISRDNAKNTVYLQMNSLKPEDTAVYYCAARPRKGQYYFGGNYWGQGTQVTVSS" .
Output: low polyreactivity

Input: I would be grateful if you could share the reported polyreactivity (PSR sort gate) for "QVQLVESGGGLVQAGGSLRLSCAASGRIFARYAMGWYRQAPGKERELVAAISFRGGSTYYADSVKGRFTISRDNAKNTVYLQMNSLKPEDTAVYYCAARFGGWDRGLDYWGQGTQVTVSS" .
Output: high polyreactivity

Input: I would be grateful if you could share the reported polyreactivity (PSR sort gate) for "QVQLVESGGGLVQAGGSLRLSCAAPGSIFPRYAMGWYRQAPGKERELVAAISRSGGSTYYADSVKGRFTISRDNAKNTVSLQRNSLKPEDTAVYYCATDKVSHRRYDYWGQGTQVTVSS" .
Output: high polyreactivity

Input: I would be grateful if you could share the reported polyreactivity (PSR sort gate) for "QVQLVESGGGLVQAGGSLRLSCAASGFTFLVNTMGWYRQAPGKERELVAATITSTGASTYYADSVKGRFTISRDNAKNTVYLQMNSLKPEDTAVYYCAVDPGGGNYIYYYNEYDYWGQGTQVTVSS" .
Output: low polyreactivity

Further cases:
Input: I would be grateful if you could share the reported polyreactivity (PSR sort gate) for "QDQLVESGGGLVQAGGSLRLSCAASGSIFFLYAMGWYRQAPGKERELVAAIRLSGGSTYYADSVKGRFTISRDNAKNTVYLQMNSLKPEDTAVYYCAAESAAASAVYSVEYDYWGQGTQVTVSS" .
Output: low polyreactivity

Source: the nanobody polyreactivity screen of Harvey et al. (2022)
